From: patent US4767749A

- Test system: spontaneously hypertensive rats (SHR)
- Procedure Details: Diuretic activity in spontaneously hypertensive rats
- Assay type: in vivo, male spontaneously hypertensive rats (Okamoto strain)
- Experimental Parameters: 100 mg/kg by gavage with 0.9% sodium chloride loading 25 ml/kg; 0-5 hour urine
- Procedure: The diuretic activity of the compounds of this invention was also determined according to the method of Chan, P. S. and Poorvin, D., Sequential method for combined screening antihypertensive and diuretic agents in the same spontaneously hypertensive rat. […] Male spontaneously hypertensive rats (SHR) of Okamoto strain, 16 weeks old, Taconic Farms Inc. were used in the test. […] The 0-5 hour urine was collected and urinary sodium and potassium were determined using a Beckman Astra 4. […]
Property: Sodium (urinary excretion); scope: individual compounds
Please answer using the number first and the unit second.

Mol Smiles: CCOC(=O)N=P(c1ccccc1)(c1ccccc1)c1ccccc1Cl
Sodium (urinary excretion): 2.05 mEQ/5 Hours
--
Mol Smiles: Cc1ccccc1P(=NC(=O)OCc1cccnc1)(c1ccccc1)c1ccccc1
Sodium (urinary excretion): 1.48 mEQ/5 Hours
--
Mol Smiles: CCOC(=O)N=P(c1ccccc1)(c1ccccc1)c1ccccc1C(C)C
Sodium (urinary excretion): 2.08 mEQ/5 Hours

Next item in the queue.
Bench note: what Sodium (urinary excretion) did `CCOC(=O)N=P(c1ccccc1)(c1ccccc1)c1cccc(Br)c1` show? 1.16 mEQ/5 Hours
